Entries and their yeast fitness values follow.
B1: tRNA (parent)
chain: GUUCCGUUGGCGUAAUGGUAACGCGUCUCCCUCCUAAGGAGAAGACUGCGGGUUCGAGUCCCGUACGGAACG

Variants of: B1
PROTOCOL DESCRIPTION: yeast fitness relative to wild type (ratio to wild type); higher = fitter; tRNA-Arg(CCU), competitive growth, 37 C, YPD
Variants at the floor of the assay were thinned out.
QUANTITY MEASURED: yeast fitness

>>> df
                         variant_label  measured_result
 0        U2C A37G C49G A57U G68C A70G            ≤ 0.5
 1                       C4U U19C C31A            ≤ 0.5
 2            G23C U28G G41A A42U U59A            ≤ 0.5
 3                       U7C G18C U59G            ≤ 0.5
 4                 C29U U32C U35G A70U            ≤ 0.5
 5                      G18A A20U A42G            ≤ 0.5
 6            G12A U16A G39C U54C C55U            ≤ 0.5
 7                           A14G G63A            0.756
 8            A20C C24A G56A C62U A70C            0.588
 9  G10A C34G G44C U47C G52A U53C C61U            ≤ 0.5
10                           A14G G41C            0.917
11                       U3C C31U G68C            0.664
12             G9A A21C C27A A37G A45C            ≤ 0.5
13                      G18C C22U G56C            0.542
14    G6A G9C C11G C22A C30U C31G G67U            ≤ 0.5
15             C4U C30A A37U G44C U53A            ≤ 0.5
16                        C4U U8G A15U            ≤ 0.5
17                 G12A C24U C55G A70U            0.531
18                           C30A A57U            0.768
19                      A14C A43G A69C            ≤ 0.5
20                      A43G A45C G51A            ≤ 0.5
21                 A14C C34G C49A C61U            ≤ 0.5
